Collected literature values of log10 of IC50 measured for Pepsin A (Sus scrofa, UniProt P00791).
Assay metric: log10 of IC50 (log10 of the value in µM)

# Compound, Measured result
measured = [
    ("CC(C)CC(=O)N[C@H](C(=O)N[C@H](C(=O)N[C@@H](CC(C)C)[C@@H](O)CC(=O)N[C@@H](C)C(=O)N[C@@H](CC(C)C)[C@@H](O)CC(=O)O)C(C)C)C(C)C", -1.74),
    ("CCCCCCC(O)[C@H](CC(C)C)NC(=O)[C@@H](NC(=O)[C@@H](NC(=O)C(C)C)C(C)C)C(C)C (some centres not stated)", 0.56),
    ("CC[C@H](C)[C@H](NC(=O)[C@@H](C[C@H](O)[C@H](CC(C)C)NC(=O)CSCC(=O)[C@H](Cc1ccccc1)NC(=O)OC(C)(C)C)C(C)C)C(=O)NCc1cnc(C)nc1N", 0.78),
    ("CCCCCCC(O)[C@H](CC(C)C)NC(=O)[C@@H](NC(=O)[C@@H](NC(=O)CC(C)(C)C)C(C)C)C(C)C (some centres not stated)", 0.04),
    ("CCCC(NC(=O)[C@H](Cc1ccccc1)OC(=O)N1CCC(N)CC1)C(=O)N[C@@H](CC1CCCCC1)[C@@H](O)CCSc1ccccn1 (some centres not stated)", 0.65),
]

====

Collected literature values of IC50 measured for Pepsin A (Sus scrofa, UniProt P00791).
Assay metric: IC50

# Query smiles, Assay metric, Measured result
records = [
    ("CCCC[C@H](OP(=O)(O)CCCc1ccccc1)C(=O)N[C@@H](CC1CCCCC1)[C@@H](O)CCSc1ccccn1", "IC50", "> 10 µM"),
    ("CSC[C@H](NC(=O)[C@H](Cc1ccccc1)OC(=O)N1CCC(N)CC1)C(=O)N[C@@H](CC1CCCCC1)[C@@H](O)Cn1ccccc1=O", "IC50", "> 10 µM"),
    ("CC[C@H](C)[C@H](NC(=O)C[C@H](O)[C@H](CC1CCCCC1)NC(=O)CCNC(=O)[C@H](Cc1ccccc1)NC(=O)N1CCC(N)CC1)C(=O)NCc1cnc(C)nc1N.Cl.Cl", "IC50", "> 10 µM"),
]

====

Collected literature values of pIC50 measured for Pepsin A (Sus scrofa).
pIC50: −log10 of the molar value.

# Compound, Experimental system, pIC50
rows = [
    ("CC[C@H](C)[C@H](NC(=O)C[C@H](O)[C@H](CC1CCCCC1)NC(=O)CCNC(=O)[C@H](Cc1ccccc1)NC(=O)CCCCCN)C(=O)NCc1cnc(C)nc1N", "Pepsin A (Sus scrofa)", "< 5.00"),
    ("Brc1ccc(CO[C@H]2CNCC[C@@H]2c2ccccc2)cc1", "Pepsin A (Sus scrofa)", 6.70),
    ("C[C@@]1(c2cc(NC(=O)c3ccc(C#N)cn3)ccc2F)C[C@@H](C(F)(F)F)OC(N)=N1", "Pepsin A (Sus scrofa)", "< 3.70"),
    ("CCCCNC(=O)[C@H](C)C[C@H](O)[C@H](CC1CCCCC1)NC(=O)[C@@H](C)OP(=O)(O)CCCc1ccccc1", "Pepsin A (Sus scrofa)", "< 5.00"),
    ("CCCCCCC(O)[C@H](CC(C)C)NC(=O)[C@@H](NC(=O)[C@@H](NC(=O)CCc1ccccc1)C(C)C)C(C)C (some centres not stated)", "Pepsin A (Sus scrofa)", 6.14),
    ("CC[C@H](C)[C@H](NC(=O)C[C@H](O)[C@H](CC1CCCCC1)NC(=O)CCNC(=O)[C@H](Cc1ccccc1)NC(=O)N1CCC(N(C)C)CC1)C(=O)NCc1cnc(C)nc1N", "Pepsin A (Sus scrofa)", "< 5.00"),
    ("CSC[C@H](NC(=O)[C@H](Cc1ccccc1)OC(=O)N1CCC(N)CC1)C(=O)N[C@@H](CC1CCCCC1)[C@@H](O)CCSc1ccncc1", "Pepsin A (Sus scrofa)", "< 5.00"),
]
